# System Under Test: T1, Human EphA2 (human, UniProt P29317 24-976)
# T1 construct: Endogenous EphA2 in fresh frozen human tumor tissue sections, not a recombinant protein; also called ephrin receptor A2; hEphA2
# Assay Remarks: IHC/IF on frozen human tumor tissue: UCEC-clear cell
# reported IHC score; entries follow

{"columns": ["Binder", "IHC score"],
 "data": [
  ["AB-009813 (antibody, mouse IgG2a, V domains shown, Made on a mouse IgG2a framework) VH: QVQLQQWGAGLLKPSETLSLTCAVYGGSFSDYYWSWIRQPPGKGLEWIGEVNHAGSINYNNYNPSLKSRVTISVDPSKNQFSLKLTSVTAADTAVYYCAKPLRPHCTNGVCYSGDAFDIWGQGTMVTVAS VL: SYVLTQPPSVSVAPGQTARITCGGNNIGSKNVHWYQQKPGQAPVLVVYDDSDRPSGIPEQFSGSNSGNTATLTISRVEAGDEADYYCQVWDSSSDHLVFGGGTKLTVL", 2],
  ["AB-009815 (antibody, mouse IgG2a, V domains shown, Made on a mouse IgG2a framework) VH: QVQLQQWGAGLLKPSETLSLTCAVYGGSFSDYYWSWIRQPPGKGLEWIGEVNHRGSINYNNYNPSLKSRVTISVDTSKNQFSLKLTSVTAADTAVYYCAKPLRPHCTNGVCYSGDAFDIWGQGTMVTVAS VL: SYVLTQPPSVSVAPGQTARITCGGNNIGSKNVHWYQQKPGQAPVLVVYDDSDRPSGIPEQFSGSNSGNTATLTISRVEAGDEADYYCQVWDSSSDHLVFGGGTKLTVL", 2],
  ["AB-009816 (antibody, mouse IgG2a, V domains shown, Made on a mouse IgG2a framework) VH: QVQLQQWGAGLLKPSETLSLTCAVYGGSFSDYYWSWIRQPPGKGLEWIGEVNHRGSINYNNYNPSLKSRVTISVDASKNQFSLKLTSVTAADTAVYYCAKPLRPHCTNGVCYSGDAFDIWGQGTMVTVAS VL: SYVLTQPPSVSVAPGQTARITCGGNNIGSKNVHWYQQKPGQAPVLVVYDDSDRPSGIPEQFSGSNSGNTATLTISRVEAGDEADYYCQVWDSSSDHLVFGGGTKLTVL", 2],
  ["AB-009812 (antibody, mouse IgG2a, V domains shown, Made on a mouse IgG2a framework) VH: QVQLQQWGAGLLKPSETLSLTCAVYGGSFSDYYWSWIRQPPGKGLEWIGEVNHSGSINYNNYNPSLKSRVTISVDPSKNQFSLKLTSVTAADTAVYYCAKPLRPHCTNGVCYSGDAFDIWGQGTMVTVAS VL: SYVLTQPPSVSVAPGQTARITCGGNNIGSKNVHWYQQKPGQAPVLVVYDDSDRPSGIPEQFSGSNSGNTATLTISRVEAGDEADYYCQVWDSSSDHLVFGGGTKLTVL", 1]
]}

Data provenance is patent US20250276077A1.
